Entry source: PubChem BioAssay (NCI)

// TGI lookup, one value per entry
# System: K-562 leukemia
# TEST_METHOD_NOTES: NCI tumour cell line growth inhibition, 48 h
MEASUREMENT_LABEL: TGI

| MOLECULE | MEASUREMENT_LABEL | READOUT_VALUE |
| --- | --- | --- |
| CC(C)=CCCC(C)[C@H]1CC(O)C2(C)C3=CCC4C(C)(C)[C@@H](O)CC[C@]4(C)C3=CC[C@]12C (stereo not given in full) | TGI | 26.6 µM |
| COC1CCN(N(C)C)O1 (stereo not given) | TGI | > 100 µM |
| CCN(CC)CCCC(CO)Nc1ccnc2cc(Cl)ccc12 (stereo not given) | TGI | > 100 µM |
| COc1ccc2c3c1O[C@H]1[C@@H](O)CC[C@@]4(O)[C@@H](C2)N(C)CC[C@]314 | TGI | > 100 µM |
| Cc1nc2c(n1CC(C)C)C(=O)c1ccccc1C2=O | TGI | > 100 µM |
| C[n+]1cn(C2=C([O-])c3ccccc3C(=O)/C2=N\S(=O)(=O)c2ccccc2)c2ccccc21 | TGI | > 100 µM |
| CCOC(=O)C1C(c2ccccc2)=C(c2ccccc2)C(c2ccccc2)=C1c1ccccc1 | TGI | > 100 µM |
| COc1ccc(C(c2ccc(C(C)C)cc(OC)c2=O)c2ccc(C(C)C)cc(OC)c2=O)cc1 | TGI | 35.9 µM |
| O=[N+]([O-])c1ccc(C2N3CCCCC3[C@H]3CCCCN23)cc1 (stereo not given in full) | TGI | > 100 µM |
| N#Cc1c(-c2ccc(Cl)cc2)csc1NC(=O)Nc1ccc(Cl)c(C(F)(F)F)c1 | TGI | 6.27 µM |

---

# Test system: SF-295 CNS
# TEST_METHOD_NOTES: NCI tumour cell line growth inhibition, 48 h; in the data active means GI50 below about 0.43 µM; inactive means the rest
Outcome codes: active, inactive

| COMPOUND | TESTED_ON | ASSIGNED_LABEL |
| --- | --- | --- |
| CCOC(=O)/C=C/C1=C(c2ccsc2)c2ccc(OC)cc2CC1 | SF-295 CNS | active |
| COc1cc(CN[C@H]2CCc3cc(OC)c(OC)c(OC)c3-c3ccc(SC)c(=O)cc32)cc(OC)c1 | SF-295 CNS | active |
| N#Cc1c(-c2ccc(Cl)cc2)csc1NC(=O)Nc1ccc(Cl)c(C(F)(F)F)c1 | SF-295 CNS | active |
| O=C1NC(=O)/C(=C/c2c(Cl)nc3sccn23)S1 | SF-295 CNS | inactive |
| COc1cc(/C=C/C(=O)Nc2ccc3c(c2)/C(=C\c2cccn2C)C(=O)N3)cc(OC)c1OC | SF-295 CNS | inactive |
| O=[N+]([O-])c1ccc(C(Br)c2ccc([N+](=O)[O-])cc2)cc1 | SF-295 CNS | inactive |
| COc1cccc2c1C(=O)c1c(O)c3c(c(O)c1C2=O)CC(O)(/C(C)=N/NC(=O)CCCCC(=O)N/N=C(\C)C1(O)Cc2c(O)c4c(c(O)c2C(OC2CC(N)C(O)C(C)O2)C1)C(=O)c1c(OC)cccc1C4=O)CC3OC1CC(N)C(O)C(C)O1 (stereo not given) | SF-295 CNS | active |
| CCn1c2ccccc2c2cc(/C=C(/C#N)C(N)=S)ccc21 | SF-295 CNS | inactive |
| O=C(/C=C/c1cc2ccccc2[nH]c1=O)c1ccc(Cl)cc1 | SF-295 CNS | inactive |
| COc1cc(/C=C/C(=O)c2ccc(Nc3nc(Nc4ccc(F)cc4)nc(Nc4ccc(Cl)cc4)n3)cc2)cc(OC)c1OC | SF-295 CNS | inactive |
